From: PubChem BioAssay (NCATS)

- Tested on: CASKI
- MEASUREMENT DESCRIPTION: Primary qHTS to identify gynecologic anti-cancer compounds using libraries of approved drugs and bioactive compounds (AID 1345084); also: % is scaled to controls: 0 for no effect and ±100 for the full control effect; nearly all actives have a fitted effect of over 55% in size
- CONDITION NOTES: Gynecologic cancer cell panel viability, ATPlite luminescence, 48 h; series mostly up to 57.5 µM
Inconclusive results are not listed. Active and inactive are the calls of the source. Calls follow the shape of the dose curve; as a rule, active = well fitted cell-killing curve with a large enough effect; inconclusive = small, poorly fitted or top-dose-only effect, or effect the other way; inactive = flat fitted curve, though single readings scatter.
ATTRIBUTE MEASURED: activity change, negative = cytotoxicity

Which value of activity change, negative = cytotoxicity has been reported for C[C@@H]1O[C@@H](O[C@@H]2[C@@H](O[C@@H]3O[C@@H](C)[C@H](O[C@@H]4OC[C@H](O)[C@H](O[C@@H]5OC[C@@H](O)[C@H](O)[C@H]5O)[C@H]4O)[C@@H](O[C@@H]4OC[C@](O)(CO)[C@H]4O)[C@H]3O)[C@H](OC(=O)[C@]34CCC(C)(C)C[C@H]3C3=CCC5[C@@]6(C)C[C@H](O)[C@H](O[C@@H]7O[C@H](CO[C@@H]8OC[C@H](O)[C@H](O)[C@H]8O)[C@@H](O)[C@H](O)[C@H]7O)C(C)(C)C6CC[C@@]5(C)[C@]3(C)C[C@H]4O)OC[C@H]2O)[C@H](O)[C@H](O)[C@H]1O (stereo partly drawn) in the records? -5.17% [at 6.55 µM] (inactive)

Also, CC(=O)N[C@@H](CCCCN)C(=O)N(C)[C@@H](CC(C)C)C(=O)N[C@H](C(=O)N(C)[C@@H](Cc1ccccc1)C(=O)N[C@H](Cc1ccccc1)C(N)=O)C(C)C please. 2.04% [at 6.55 µM] (inactive)

Also, CC1OC(OC2C(C)OC(OC3C(O)C(CO)OC(O[C@H]4CC[C@@]5(C)C(CC[C@]6(C)C5CC=C5C7[C@@H](C)[C@H](C)CC[C@]7(C(=O)O)CC[C@]56C(=O)O)C4(C)C)C3O)C(O)C2O)C(O)C(O)C1O (stereo partly drawn) please. 1.59% [at 11.6 µM] (inactive)
